molecules and their reported inhibition at 10 µM
Biological target: COX-1 (Prostaglandin G/H synthase 1) (Homo sapiens)
Sequence (P23219 whole entry): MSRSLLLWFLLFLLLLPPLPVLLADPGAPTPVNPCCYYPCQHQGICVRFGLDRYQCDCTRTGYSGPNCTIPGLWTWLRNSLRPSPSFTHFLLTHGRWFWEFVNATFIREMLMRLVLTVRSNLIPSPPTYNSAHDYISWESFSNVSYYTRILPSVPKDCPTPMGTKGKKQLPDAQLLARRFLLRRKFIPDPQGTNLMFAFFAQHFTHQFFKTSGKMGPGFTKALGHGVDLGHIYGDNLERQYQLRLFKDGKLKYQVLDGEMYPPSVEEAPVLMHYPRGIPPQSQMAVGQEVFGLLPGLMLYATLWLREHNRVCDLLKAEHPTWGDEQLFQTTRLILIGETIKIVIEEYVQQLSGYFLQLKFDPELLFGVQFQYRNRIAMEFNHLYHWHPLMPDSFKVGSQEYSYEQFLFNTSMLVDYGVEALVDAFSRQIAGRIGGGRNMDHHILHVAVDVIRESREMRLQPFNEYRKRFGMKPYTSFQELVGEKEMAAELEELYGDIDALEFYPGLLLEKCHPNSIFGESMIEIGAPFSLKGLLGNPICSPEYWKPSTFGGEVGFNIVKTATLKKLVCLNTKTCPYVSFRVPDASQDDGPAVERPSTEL
Experiment: Inhibition of human recombinant COX-1 at 10 uM using arachidonic acid as substrate preincubated for 10 mins followed by substrate addition relative to control
Settings: recombinant COX-1, probe arachidonic acid
Remember to quote the unit after the number.

| smiles repr | inhibition at 10 µM |
| --- | --- |
| CCOc1cc(NS(=O)(=O)c2ccc([N+](=O)[O-])cc2)ccc1NS(C)(=O)=O | 21% |

Given item CC(C)Oc1cc(NC(=O)c2ccc(F)cc2)ccc1NS(C)(=O)=O , the value recorded as its inhibition at 10 µM is 27.2%
